Cited source: ChEMBL document CHEMBL1781951

Subject Of Test: Bile acid receptor (Homo sapiens) (UniProt Q96RI1)
Sequence (Q96RI1 whole entry): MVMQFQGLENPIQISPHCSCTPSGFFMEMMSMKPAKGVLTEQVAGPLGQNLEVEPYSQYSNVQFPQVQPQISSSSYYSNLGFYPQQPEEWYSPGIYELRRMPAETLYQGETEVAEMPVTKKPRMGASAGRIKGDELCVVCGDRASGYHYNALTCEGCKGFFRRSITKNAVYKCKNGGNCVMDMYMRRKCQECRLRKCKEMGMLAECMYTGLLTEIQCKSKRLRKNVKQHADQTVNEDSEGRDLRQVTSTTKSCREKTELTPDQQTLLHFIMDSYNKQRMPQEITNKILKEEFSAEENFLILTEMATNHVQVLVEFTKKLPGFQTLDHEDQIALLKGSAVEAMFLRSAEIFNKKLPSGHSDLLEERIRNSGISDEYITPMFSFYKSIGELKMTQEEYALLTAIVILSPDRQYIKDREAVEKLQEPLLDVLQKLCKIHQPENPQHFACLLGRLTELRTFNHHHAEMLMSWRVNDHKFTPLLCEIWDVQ
Method: Antagonist activity at human FXR expressed in HepG2 cells assessed as inhibition of CDCA-induced transactivation at 50 uM after 18 hrs by luciferase reporter gene assay
Active and inactive are the calls of the source. The calls are words filed in the database; no cut-off is given here.
Possible outcomes: true (1) (active), false (0) (inactive)

>  <Compound Smiles>
C=C1[C@@H](O)CC[C@]2(C)C3=C(CC[C@@H]12)[C@]1(O)[C@@H](O)C[C@H]([C@H](C)CC[C@H](CC)C(C)C)[C@@]1(C)C[C@H]3O

>  <Label Value>
false (0)

$$$$
>  <Compound Smiles>
C=C1[C@@H](O)CC[C@@]2(C)[C@H]1CCC1=C3[C@H](O)C[C@H]([C@H](C)CC[C@H](CC)C(C)C)[C@@]3(C)CC[C@@]12O

>  <Label Value>
true (1)

$$$$
>  <Compound Smiles>
C=C1[C@@H](O)CC[C@@]2(C)[C@H]1C[C@@H](O)C1=C3[C@H](O)C[C@H]([C@H](C)CC[C@H](CC)C(C)C)[C@@]3(C)CC[C@@H]12

>  <Label Value>
true (1)

$$$$
>  <Compound Smiles>
C=C1[C@@H](O)CC[C@@]2(C)[C@H]1CCC1=C3[C@H](O)C[C@H]([C@H](C)CC[C@H](CC)C(C)C)[C@@]3(C)CC[C@@]12OC

>  <Label Value>
false (0)

$$$$
>  <Compound Smiles>
C=C1[C@@H](O)CC[C@]2(C)C3=CC[C@@]4(C)C(=CC[C@@H]4[C@H](C)CC[C@@H](C)C(C)C)C3=CC[C@@H]12

>  <Label Value>
true (1)

$$$$
>  <Compound Smiles>
C=C1[C@@H](O)CC[C@]2(C)C3=C(CC[C@@H]12)[C@@H]1C(=O)C[C@H]([C@H](C)CC[C@H](CC)C(C)C)[C@@]1(C)CC3

>  <Label Value>
true (1)

$$$$
>  <Compound Smiles>
C=C1[C@@H](O)CC[C@@]2(C)[C@H]1CCC1=C3[C@H](O)C[C@H]([C@H](C)CC[C@@H](C)C(C)C)[C@@]3(C)CC[C@@]12O

>  <Label Value>
true (1)

$$$$
>  <Compound Smiles>
C=C1[C@@H](O)CC[C@]2(C)C3=C(CC[C@@H]12)[C@]1(O)[C@@H](O)C[C@H]([C@H](C)CC[C@H](CC)C(C)C)[C@@]1(C)C[C@@H]3O

>  <Label Value>
true (1)

$$$$
>  <Compound Smiles>
C=C1[C@@H](O)CC[C@]2(C)C3=CC[C@@]4(C)C(=CC[C@@H]4[C@H](C)CC[C@H](CC)C(C)C)C3=CC[C@@H]12

>  <Label Value>
true (1)

$$$$
